# reported inhibition; entries follow
Molecular target: Solute carrier family 2, facilitated glucose transporter member 1 (Homo sapiens) (UniProt P11166)
Sequence (P11166 whole entry): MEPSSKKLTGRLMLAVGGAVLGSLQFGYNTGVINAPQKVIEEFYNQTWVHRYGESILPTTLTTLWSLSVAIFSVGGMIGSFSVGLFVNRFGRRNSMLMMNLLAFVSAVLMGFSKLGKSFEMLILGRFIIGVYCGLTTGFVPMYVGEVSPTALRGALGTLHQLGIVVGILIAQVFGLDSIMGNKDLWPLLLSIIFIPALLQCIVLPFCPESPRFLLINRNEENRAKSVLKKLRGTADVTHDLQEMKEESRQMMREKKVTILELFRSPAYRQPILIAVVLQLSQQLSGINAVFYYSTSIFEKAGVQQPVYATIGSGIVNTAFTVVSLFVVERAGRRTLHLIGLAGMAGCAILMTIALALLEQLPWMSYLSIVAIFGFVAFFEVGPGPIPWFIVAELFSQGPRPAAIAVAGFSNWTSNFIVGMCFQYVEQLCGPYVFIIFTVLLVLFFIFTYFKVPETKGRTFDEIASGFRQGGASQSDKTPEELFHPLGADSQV
Assay: ST_JUDE_LEISH: Cytotoxicity at 2uM final concentration against transgenic Leishmania Mexicana promastigotes LmGLUT1 that are glucose transport deficient and complemented with the human glucose transporter GLUT1. Activity is measured by DNA content using SYBR green in vitro
Assay type: functional
REPORTED METRIC: inhibition (%)

MOLECULE: Cn1nccc1C(=O)NCCNCc1cccc(-c2csc(-c3nc4ccccc4[nH]3)c2)c1
REPORTED METRIC: inhibition
READING UNIT: %
MEASUREMENT: 9.15
--
MOLECULE: CCSc1ccccc1CON1C(=N)N=C(N)NC1(C)C
REPORTED METRIC: inhibition
READING UNIT: %
MEASUREMENT: 15.4
--
MOLECULE: c1cc(CNCCN2CCNCC2)cc(-c2ccc(-c3nc4ccccc4[nH]3)cc2)c1
REPORTED METRIC: inhibition
READING UNIT: %
MEASUREMENT: 18.3
--
MOLECULE: CCCN1CCC2(CC1)NC(C(=O)NCCC(C)C)Cc1c2[nH]c2cc(Cl)ccc12 (stereo not drawn)
REPORTED METRIC: inhibition
READING UNIT: %
MEASUREMENT: 6.25
--
MOLECULE: Cc1cc(OCC2CCN(c3ccc(C(=O)NC4CC4)cn3)CC2)ccc1F
REPORTED METRIC: inhibition
READING UNIT: %
MEASUREMENT: 0.67
--
MOLECULE: Cc1cnc(Nc2ccccc2)nc1N[C@@H](CCCN)C(=O)Nc1ccccc1
REPORTED METRIC: inhibition
READING UNIT: %
MEASUREMENT: -1.01
--
MOLECULE: Cc1[nH]c(C)c(-c2ccc(-c3ccccc3Cl)nc2)c(=O)c1Cl
REPORTED METRIC: inhibition
READING UNIT: %
MEASUREMENT: 3.05
--
MOLECULE: O=C(c1cccc(-c2noc(C(F)(F)F)n2)c1)N1CCN(c2ccncc2)CC1
REPORTED METRIC: inhibition
READING UNIT: %
MEASUREMENT: 11.1
--
MOLECULE: CC(C)c1ccc(NC(=O)c2ccc(CN3CCCN(Cc4cccc(O)c4)CC3)cc2)cc1
REPORTED METRIC: inhibition
READING UNIT: %
MEASUREMENT: 2.95
--
MOLECULE: CCN(CC)CCN(Cc1ccc(-c2ccc(Cl)cc2)cc1)C(=O)Cn1c(CCc2cccc(F)c2F)nc(=O)c2ccccc21
REPORTED METRIC: inhibition
READING UNIT: %
MEASUREMENT: -2.54
--
MOLECULE: CC1CNC(c2cccc(NC(=O)Nc3cccc(C4=NC(C)CN4)c3)c2)=N1 (stereo not drawn)
REPORTED METRIC: inhibition
READING UNIT: %
MEASUREMENT: 6.32
--
MOLECULE: Cc1cc(Cl)c(Cl)cc1NC(=O)Nc1cccc(C(F)(F)F)c1
REPORTED METRIC: inhibition
READING UNIT: %
MEASUREMENT: 1.27
--
MOLECULE: O=C(Nc1cccc(-c2ccc(-c3nc4cc(C(F)(F)F)ccc4[nH]3)s2)c1)c1cccnc1
REPORTED METRIC: inhibition
READING UNIT: %
MEASUREMENT: 4.93

Hello, the source for this data is ChEMBL document CHEMBL3433997, in case you need it.
